Data credit: paper PMC9890698

Target entity: Human P2Y1-R (Homo sapiens)
Construct: expressed in transfected cells; host or cells: HEK293T/17
Sequence (P47900 whole entry): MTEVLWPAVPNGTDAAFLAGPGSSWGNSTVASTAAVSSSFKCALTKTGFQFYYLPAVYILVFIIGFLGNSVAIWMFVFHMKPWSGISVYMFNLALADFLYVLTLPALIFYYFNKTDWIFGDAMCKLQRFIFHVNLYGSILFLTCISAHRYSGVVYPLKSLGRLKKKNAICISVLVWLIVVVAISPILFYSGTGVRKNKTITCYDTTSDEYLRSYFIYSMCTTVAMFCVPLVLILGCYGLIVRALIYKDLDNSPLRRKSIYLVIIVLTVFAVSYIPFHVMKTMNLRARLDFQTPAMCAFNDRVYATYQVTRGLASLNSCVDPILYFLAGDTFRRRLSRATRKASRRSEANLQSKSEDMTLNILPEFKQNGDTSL
Method notes: β-arrestin 2 recruitment BRET1 assay (β-arrestin 2-RLuc / P2Y1-R-Venus) in HEK293T cells
Type: cell-based
Condition summary: Fig. 3g, inverse agonism on β-arrestin 2 recruitment, 15 min
Description: We assessed β-arrestin 2 recruitment to the receptor using BRET^1 assay. […] G protein activation and β-arrestin 2 recruitment were performed as previously described. […] BRET signal between RLuc8 and GFP2 was measured after addition of the luciferase substrate coelenterazine 400a (5 μM). […] BRET signal was recorded after incubation with coelenterazine h (5 μM) for 8 min. […] Total fluorescence was first measured with an excitation filter at 485 nm and an emission filter at 520 nm. […]
Attribute measured: EC50
Give the number first and the unit second.

Query block: Checklist item: EC50 tested on Human P2Y1-R (Homo sapiens), entry CNc1ncnc2c1ncn2[C@H]1C[C@H](OP(=O)(O)O)[C@@H](COP(=O)(O)O)O1 [MRS2179] , value?
Result block: 4.56 µM
